Molecular target: T1, soluble human FcRn (human, UniProt P55899 24-297; P61769 21-119, biotinylated (Sulfo-NHS-LC-Biotin) in the ELISA; amine-coupled to CM5 chip in SPR)
T1 construct: also called shFcRn; biotinylated shFcRn
T1 sequence (P55899 24-297 limits assumed, chain 1 of 2): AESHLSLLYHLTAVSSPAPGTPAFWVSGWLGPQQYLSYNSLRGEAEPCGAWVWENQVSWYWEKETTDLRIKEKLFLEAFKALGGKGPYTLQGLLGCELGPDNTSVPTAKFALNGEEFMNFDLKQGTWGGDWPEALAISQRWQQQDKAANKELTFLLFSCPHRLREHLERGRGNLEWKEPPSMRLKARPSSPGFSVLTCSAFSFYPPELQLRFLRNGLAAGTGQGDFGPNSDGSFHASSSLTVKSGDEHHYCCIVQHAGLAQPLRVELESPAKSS
T1 sequence (P61769 21-119 limits assumed, chain 2 of 2): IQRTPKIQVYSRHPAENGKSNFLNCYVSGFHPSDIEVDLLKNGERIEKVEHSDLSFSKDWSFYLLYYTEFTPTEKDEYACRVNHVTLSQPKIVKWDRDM
Test: ELISA, competitor human IgG
Reported IC50 values for a set of binders
measure: IC50 (nM)

>  <binder>
RFXTGHFGPLYPCNGP (Pen at 3; D-Pro at 9; disulfide; C-terminal amide) [Peptide No. 144]

>  <assay result>
1500

$$$$
>  <binder>
RFXTGHFGGLYPC (Pen at 3; disulfide; C-terminal amide) [Peptide No. 99]

>  <assay result>
2000

$$$$
>  <binder>
RFXTGHFGPLYPC (Pen at 3; D-Pro at 9; disulfide; C-terminal amide) [Peptide No. 142]

>  <assay result>
1500

$$$$
>  <binder>
QRFXTGHFGGLYPCNGP (Pen (L-penicillamine) at 4; disulfide; C-terminal amide) [Peptide No. 32]

>  <assay result>
2000

$$$$
